Collected set of Ki measured with Serine/threonine-protein kinase pim-3 (Homo sapiens, UniProt Q86V86) across studies.
Just the number plus its unit, please.

The following compounds have reported results that may help.
>  <compound>
CN(C)C(=O)c1ccc(F)c(-c2nc(C(=O)Nc3cnccc3N3CCC[C@H](N)C3)c(N)s2)c1

>  <tested-target>
Serine/threonine-protein kinase pim-3 (Homo sapiens, UniProt Q86V86)

>  <Ki>
0.033 nM

$$$$
>  <compound>
Cc1cncc(-c2cc3c(cn2)cnn3-c2ccc(C#N)c(N3CCC[C@H](N)C3)n2)n1

>  <tested-target>
Serine/threonine-protein kinase pim-3 (Homo sapiens, UniProt Q86V86)

>  <Ki>
0.02 nM

$$$$
>  <compound>
Nc1sc(-c2c(F)cccc2F)nc1C(=O)Nc1cnccc1N1CCNCC1

>  <tested-target>
Serine/threonine-protein kinase pim-3 (Homo sapiens, UniProt Q86V86)

>  <Ki>
0.333 nM

$$$$
>  <compound>
Cc1cc(-c2cc3c(cn2)cnn3-c2cccc(N3CCC[C@H](N)C3)n2)sn1

>  <tested-target>
Serine/threonine-protein kinase pim-3 (Homo sapiens, UniProt Q86V86)

>  <Ki>
0.14 nM

$$$$

### Prompt Item: Cn1cc(NC(=O)c2nc(-c3c(F)cccc3F)sc2N)cn1 Test system: Serine/threonine-protein kinase pim-3 (Homo sapiens, UniProt Q86V86) Read-out: Ki Value: ?
### Response 8.8 nM

### Prompt Item: Cc1cncc(-c2cc3c(cn2)cnn3-c2ccc(C(F)(F)F)c(N3CCC[C@H](N)C3)n2)n1 Test system: Serine/threonine-protein kinase pim-3 (Homo sapiens, UniProt Q86V86) Read-out: Ki Value: ?
### Response 0.009 nM

### Prompt Item: CCc1cncc(-c2cc3c(cn2)cnn3-c2cccc(N3CCNCC(O)C3)n2)n1 (centres unmarked) Test system: Serine/threonine-protein kinase pim-3 (Homo sapiens, UniProt Q86V86) Read-out: Ki Value: ?
### Response 0.048 nM

### Prompt Item: OCCn1cc(-c2cc3c(cn2)cnn3-c2cccc(N3CCCNCC3)n2)cn1 Test system: Serine/threonine-protein kinase pim-3 (Homo sapiens, UniProt Q86V86) Read-out: Ki Value: ?
### Response 0.134 nM

----------
Collected set of Ki measured with Serine/threonine-protein kinase pim-3 (Homo sapiens, UniProt Q86V86) across studies.
Cut-off 600 pM on Ki: below means Satisfied, at or above means Not satisfied.

Please review the following examples before continuing.
>  <item-smiles>
Nc1sc(-c2cc(F)ccc2F)nc1C(=O)Nc1cnccc1N1CCC[C@H](N)C1

>  <class-assignment>
Satisfied

$$$$
>  <item-smiles>
c1cc(N2CCCNCC2)nc(-n2ncc3cnc(-c4cncnc4)cc32)c1

>  <class-assignment>
Not satisfied

$$$$
>  <item-smiles>
CCc1cncc(-c2cc3c(cn2)cnn3-c2cccc(N3CCC[C@H](N)C3)n2)n1

>  <class-assignment>
Satisfied

$$$$
>  <item-smiles>
Nc1sc(-c2c(F)cccc2F)nc1C(=O)Nc1cnn(CCF)c1

>  <class-assignment>
Not satisfied

$$$$
>  <item-smiles>
C[C@H]1CN(c2cccc(-n3ncc4cnc(-c5cncc(C6COC6)c5)cc43)n2)CCN1

>  <class-assignment>
Satisfied

$$$$
>  <item-smiles>
COc1ncc(-n2ncc3cnc(-c4cncc(C)n4)cc32)nc1N1CCC[C@H](N)C1

>  <class-assignment>
Satisfied

$$$$

### Prompt Confirm or reject: Ki of Cc1cncc(-c2cc3c(cn2)cnn3-c2cccc(N(C)C)n2)n1 lies strictly below 600 pM
### Response Satisfied

### Prompt Confirm or reject: Ki of CC(C)(C)n1cc(-c2cc3c(cn2)cnn3-c2cccc(N3CCCNCC3)n2)cn1 lies strictly below 600 pM
### Response Not satisfied
